- Test system: KRAS-mutant PDC complex spheroid viability;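 note: viability read after seven days of compound exposure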
- assayRemarks: Anticancer human tumor 186277-243-T-J2-PDC patient-derived colon adenocarcinoma cell line growth inhibition [KRAS2]; active = viability on the fitted dose curve at most 10% of control; inactive = the rest
- conditionContext: second compound 0.316 µM; first compound 10 µM
Pick from t = active, f = inactive when you respond.

// below: answered molecules
molecule	assayedTarget	qualitativeLabel
Cn1nccc1Nc1nccc(-c2cc3c(s2)C(C)(C)N(CCN2CCOCC2)C3=O)n1 + CNCc1ccccc1-c1csc(C(C)Nc2nc(C)nc3cc(OC)c(OC)cc23)c1	KRAS-mutant PDC complex spheroid viability	t
CC1(C)CCC(CN2CCN(c3ccc(C(=O)NS(=O)(=O)c4ccc(NCC5CCOCC5)c([N+](=O)[O-])c4)c(Oc4cnc5[nH]ccc5c4)c3)CC2)=C(c2ccc(Cl)cc2)C1 + CNCc1ccccc1-c1csc(C(C)Nc2nc(C)nc3cc(OC)c(OC)cc23)c1	KRAS-mutant PDC complex spheroid viability	t
CC1OCC2(CCN(c3cnc(Sc4ccnc(N)c4Cl)c(N)n3)CC2)C1N (stereo not given) + COc1cc2nc(C)nc(NC(C)c3cc(N)cc(C(F)(F)F)c3)c2cc1OC1CCOC1	KRAS-mutant PDC complex spheroid viability	f
COC(=O)c1ccc2c(C(=Nc3ccc(N(C)C(=O)CN4CCN(C)CC4)cc3)c3ccccc3)c(O)[nH]c2c1 + C=CC(=O)N1CCN(c2nc(OCC3CCCN3C)nc3c2CCN(c2cccc4cccc(C)c24)C3)CC1CC#N	KRAS-mutant PDC complex spheroid viability	t
COc1cc2nccc(Oc3ccc(NC(=O)C4(C(=O)Nc5ccc(F)cc5)CC4)cc3)c2cc1OC + C=CC(=O)N1CCN(c2nc(=O)n(-c3c(C)ccnc3C(C)C)c3nc(-c4c(O)cccc4F)c(F)cc23)C(C)C1	KRAS-mutant PDC complex spheroid viability	f
COC(=O)c1ccc2c(C(=Nc3ccc(N(C)C(=O)CN4CCN(C)CC4)cc3)c3ccccc3)c(O)[nH]c2c1 + CNCc1ccccc1-c1csc(C(C)Nc2nc(C)nc3cc(OC)c(OC)cc23)c1	KRAS-mutant PDC complex spheroid viability	t
O=C(c1cc(Cc2n[nH]c(=O)c3ccccc23)ccc1F)N1CCN(C(=O)C2CC2)CC1 + CC1OCC2(CCN(c3cnc(Sc4ccnc(N)c4Cl)c(N)n3)CC2)C1N	KRAS-mutant PDC complex spheroid viability	f
CC1(C)CCC(CN2CCN(c3ccc(C(=O)NS(=O)(=O)c4ccc(NCC5CCOCC5)c([N+](=O)[O-])c4)c(Oc4cnc5[nH]ccc5c4)c3)CC2)=C(c2ccc(Cl)cc2)C1 + CC1OCC2(CCN(c3cnc(Sc4ccnc(N)c4Cl)c(N)n3)CC2)C1N	KRAS-mutant PDC complex spheroid viability	t
CC(C)NCC(C(=O)N1CCN(c2ncnc3c2C(C)CC3O)CC1)c1ccc(Cl)cc1 (stereo not given) + CC1OCC2(CCN(c3cnc(Sc4ccnc(N)c4Cl)c(N)n3)CC2)C1N	KRAS-mutant PDC complex spheroid viability	t
COc1cc(Nc2ncc3c(n2)-c2ccc(Cl)cc2C(c2c(F)cccc2OC)=NC3)ccc1C(=O)O + CNCc1ccccc1-c1csc(C(C)Nc2nc(C)nc3cc(OC)c(OC)cc23)c1	KRAS-mutant PDC complex spheroid viability	f

IN: // param item: CC(C)NCC(C(=O)N1CCN(c2ncnc3c2C(C)CC3O)CC1)c1ccc(Cl)cc1 (stereo not given) + C=CC(=O)N1CCN(c2nc(OCC3CCCN3C)nc3c2CCN(c2cccc4cccc(C)c24)C3)CC1CC#N ; yields the recorded call
OUT: f

IN: // param item: CCNC(=O)CC1N=C(c2ccc(Cl)cc2)c2cc(OC)ccc2-n2c(C)nnc21 (stereo not given) + COc1cc2nc(C)nc(NC(C)c3cc(N)cc(C(F)(F)F)c3)c2cc1OC1CCOC1 ; yields the recorded call
OUT: f

IN: // param item: COc1cc(Nc2ncc3c(n2)-c2ccc(Cl)cc2C(c2c(F)cccc2OC)=NC3)ccc1C(=O)O + C=CC(=O)N1CCN(c2nc(=O)n(-c3c(C)ccnc3C(C)C)c3nc(-c4c(O)cccc4F)c(F)cc23)C(C)C1 ; yields the recorded call
OUT: f

IN: // param item: CC1OCC2(CCN(c3cnc(Sc4ccnc(N)c4Cl)c(N)n3)CC2)C1N (stereo not given) + C=CC(=O)N1CCN(c2nc(=O)n(-c3c(C)ccnc3C(C)C)c3nc(-c4c(O)cccc4F)c(F)cc23)C(C)C1 ; yields the recorded call
OUT: f

IN: // param item: CC(C)NCC(C(=O)N1CCN(c2ncnc3c2C(C)CC3O)CC1)c1ccc(Cl)cc1 (stereo not given) + C=CC(=O)N1CCN(c2nc(=O)n(-c3c(C)ccnc3C(C)C)c3nc(-c4c(O)cccc4F)c(F)cc23)C(C)C1 ; yields the recorded call
OUT: f

IN: // param item: CCNC(=O)CC1N=C(c2ccc(Cl)cc2)c2cc(OC)ccc2-n2c(C)nnc21 (stereo not given) + CC1OCC2(CCN(c3cnc(Sc4ccnc(N)c4Cl)c(N)n3)CC2)C1N ; yields the recorded call
OUT: f

IN: // param item: CC1(C)CCC(CN2CCN(c3ccc(C(=O)NS(=O)(=O)c4ccc(NCC5CCOCC5)c([N+](=O)[O-])c4)c(Oc4cnc5[nH]ccc5c4)c3)CC2)=C(c2ccc(Cl)cc2)C1 + C=CC(=O)N1CCN(c2nc(OCC3CCCN3C)nc3c2CCN(c2cccc4cccc(C)c24)C3)CC1CC#N ; yields the recorded call
OUT: t

IN: // param item: CC1OCC2(CCN(c3cnc(Sc4ccnc(N)c4Cl)c(N)n3)CC2)C1N (stereo not given) + C=CC(=O)N1CCN(c2nc(OCC3CCCN3C)nc3c2CCN(c2cccc4cccc(C)c24)C3)CC1CC#N ; yields the recorded call
OUT: f

IN: // param item: COc1cc2nccc(Oc3ccc(NC(=O)C4(C(=O)Nc5ccc(F)cc5)CC4)cc3)c2cc1OC + CC1OCC2(CCN(c3cnc(Sc4ccnc(N)c4Cl)c(N)n3)CC2)C1N ; yields the recorded call
OUT: t

IN: // param item: Cn1nccc1Nc1nccc(-c2cc3c(s2)C(C)(C)N(CCN2CCOCC2)C3=O)n1 + CC1OCC2(CCN(c3cnc(Sc4ccnc(N)c4Cl)c(N)n3)CC2)C1N ; yields the recorded call
OUT: t

The measured values listed here are drawn from PubChem BioAssay AID1963875.
